measurementLabel: melting point (°C)
Numbers only; they are read as °C.

What value of melting point has been recorded for this entry: Nc1cccc(C(=O)NCCC[P+](c2ccccc2)(c2ccccc2)c2ccccc2)c1.[Br-] [QD358]
223

What value of melting point has been recorded for this entry: O=C1C(Nc2ccc(OC(F)(F)F)cc2)=CC(=O)c2ncncc21 [QD327]
114

What value of melting point has been recorded for this entry: COc1cccc(NC2=CC(=O)c3ncncc3C2=O)c1 [QD353]
142

What value of melting point has been recorded for this entry: CCc1ccc(-c2ccc(NC3=CC(=O)c4ncncc4C3=O)cc2)cc1 [QD335]
232

What value of melting point has been recorded for this entry: O=C1C(NCc2ccc(F)cc2)=CC(=O)c2ncncc21 [QD356]
203
